System: Enterococcus faecalis
Experiment: Antibacterial activity against Enterococcus faecalis C21560 by turbidity method
Format: functional
Conditions: read-out: MIC100
Field 'label' (enum: fulfilled / not fulfilled). Set to fulfilled when MIC is strictly under 0.1 µg/mL; else not fulfilled.

CO/C(C)=C1/NC(=O)[C@H]([C@@H](C)O)NC(=O)c2csc(n2)-c2cc(O)c(-c3nc(CN)cs3)nc2-c2csc(n2)[C@@H]2COC(=O)c3c4c5c(cccc5n3O)COC(=O)[C@@H](O[C@H]3C[C@](C)(O)[C@H](N(C)C)[C@H](C)O3)[C@@H](OC4)[C@H](NC(=O)c3csc1n3)c1nc(cs1)C(=O)N2 | fulfilled

Qu. Report whether reported MIC is lower than 0.1 µg/mL (strictly) for `CO/C(C)=C1/NC(=O)[C@H]([C@@H](C)O)NC(=O)c2csc(n2)-c2cc(O)c(-c3nc(CNC(=O)C(N)=O)cs3)nc2-c2csc(n2)[C@@H]2COC(=O)c3c4c5c(cccc5n3O)COC(=O)[C@@H](O[C@H]3C[C@](C)(O)[C@H](N(C)C)[C@H](C)O3)[C@@H](OC4)[C@H](NC(=O)c3csc1n3)c1nc(cs1)C(=O)N2`
Ans. fulfilled

Qu. Would you kindly verify if MIC of CO/C(C)=C1/NC(=O)[C@H]([C@@H](C)O)NC(=O)c2csc(n2)-c2cc(O)c(-c3nc(CNCC(O)CO)cs3)nc2-c2csc(n2)[C@@H]2COC(=O)c3c4c5c(cccc5n3O)COC(=O)[C@@H](O[C@H]3C[C@](C)(O)[C@H](N(C)C)[C@H](C)O3)[C@@H](OC4)[C@H](NC(=O)c3csc1n3)c1nc(cs1)C(=O)N2 (stereo partly specified) is strictly less than 0.1 µg/mL?
Ans. not fulfilled

Qu. State whether 0.1 µg/mL exceeds MIC recorded for `CO/C(C)=C1/NC(=O)[C@H]([C@@H](C)O)NC(=O)c2csc(n2)-c2cc(O)c(-c3nc(CN(CCO)CCO)cs3)nc2-c2csc(n2)[C@@H]2COC(=O)c3c4c5c(cccc5n3O)COC(=O)[C@@H](O[C@H]3C[C@](C)(O)[C@H](N(C)C)[C@H](C)O3)[C@@H](OC4)[C@H](NC(=O)c3csc1n3)c1nc(cs1)C(=O)N2` .
Ans. not fulfilled

Qu. Given the entry `CO/C(C)=C1/NC(=O)[C@H]([C@@H](C)O)NC(=O)c2csc(n2)-c2cc(O)c(-c3nc(CNC(=O)CN(C)C)cs3)nc2-c2csc(n2)[C@@H]2COC(=O)c3c4c5c(cccc5n3O)COC(=O)[C@@H](O[C@H]3C[C@](C)(O)[C@H](N(C)C)[C@H](C)O3)[C@@H](OC4)[C@H](NC(=O)c3csc1n3)c1nc(cs1)C(=O)N2` , would its reported MIC be below 0.1 µg/mL?
Ans. not fulfilled

Qu. Please state whether MIC is below 0.1 µg/mL for CO/C(C)=C1/NC(=O)[C@H]([C@@H](C)O)NC(=O)c2csc(n2)-c2cc(O)c(-c3nc(CNC(=O)C(C)NC(N)=O)cs3)nc2-c2csc(n2)[C@@H]2COC(=O)c3c4c5c(cccc5n3O)COC(=O)[C@@H](O[C@H]3C[C@](C)(O)[C@H](N(C)C)[C@H](C)O3)[C@@H](OC4)[C@H](NC(=O)c3csc1n3)c1nc(cs1)C(=O)N2 (stereo partly specified)
Ans. not fulfilled

Qu. For this compound, is MIC lower than 0.1 µg/mL? `CO/C(C)=C1/NC(=O)[C@H]([C@@H](C)O)NC(=O)c2csc(n2)-c2cc(O)c(-c3nc(CNC(=O)NCCN(C)C)cs3)nc2-c2csc(n2)[C@@H]2COC(=O)c3c4c5c(cccc5n3O)COC(=O)[C@@H](O[C@H]3C[C@](C)(O)[C@H](N(C)C)[C@H](C)O3)[C@@H](OC4)[C@H](NC(=O)c3csc1n3)c1nc(cs1)C(=O)N2`
Ans. not fulfilled

Qu. Lab note: confirm whether the reported MIC for this compound is below 0.1 µg/mL, equality not counting. compound: `CO/C(C)=C1/NC(=O)[C@H]([C@@H](C)O)NC(=O)c2csc(n2)-c2cc(O)c(-c3nc(CNC(=O)CN4CCN(C)CC4)cs3)nc2-c2csc(n2)[C@@H]2COC(=O)c3c4c5c(cccc5n3O)COC(=O)[C@@H](O[C@H]3C[C@](C)(O)[C@H](N(C)C)[C@H](C)O3)[C@@H](OC4)[C@H](NC(=O)c3csc1n3)c1nc(cs1)C(=O)N2`
Ans. fulfilled

Qu. Record CO/C(C)=C1/NC(=O)[C@H]([C@@H](C)O)NC(=O)c2csc(n2)-c2cc(O)c(-c3nc(CNC(=O)C(NC(N)=O)c4ccc(O)cc4)cs3)nc2-c2csc(n2)[C@@H]2COC(=O)c3c4c5c(cccc5n3O)COC(=O)[C@@H](O[C@H]3C[C@](C)(O)[C@H](N(C)C)[C@H](C)O3)[C@@H](OC4)[C@H](NC(=O)c3csc1n3)c1nc(cs1)C(=O)N2 (stereo partly specified) : is its MIC strictly below 0.1 µg/mL?
Ans. not fulfilled

Qu. Determine whether this compound shows MIC lower than 0.1 µg/mL (ties excluded): `CO/C(C)=C1/NC(=O)[C@H]([C@@H](C)O)NC(=O)c2csc(n2)-c2cc(O)c(-c3nc(CNC(=O)NCCc4cnc[nH]4)cs3)nc2-c2csc(n2)[C@@H]2COC(=O)c3c4c5c(cccc5n3O)COC(=O)[C@@H](O[C@H]3C[C@](C)(O)[C@H](N(C)C)[C@H](C)O3)[C@@H](OC4)[C@H](NC(=O)c3csc1n3)c1nc(cs1)C(=O)N2`
Ans. not fulfilled

Qu. Quick check: MIC of `CO/C(C)=C1/NC(=O)[C@H]([C@@H](C)O)NC(=O)c2csc(n2)-c2cc(O)c(-c3nc(CNC(=O)CN4CCOCC4)cs3)nc2-c2csc(n2)[C@@H]2COC(=O)c3c4c5c(cccc5n3O)COC(=O)[C@@H](O[C@H]3C[C@](C)(O)[C@H](N(C)C)[C@H](C)O3)[C@@H](OC4)[C@H](NC(=O)c3csc1n3)c1nc(cs1)C(=O)N2` under 0.1 µg/mL?
Ans. fulfilled

Entry source: ChEMBL document CHEMBL2311426
